Test system: Klebsiella pneumoniae
TEST_DETAILS: Antibacterial activity against Klebsiella pneumoniae ATCC 700603 assessed as reduction in bacterial cell growth incubated for 16 to 24 hrs by CLSI-protocol based Mueller-Hinton Broth micro-dilution method
Format: functional
CONDITION_SUMMARY: time 16-24 hrs
Bridge positions count the residues as written; N and C are the ends. Square brackets hold non-standard residues; d marks the D form. I, II: the chains in the order shown. * marks the point of attachment. ξ: configuration not given here. Lauroyl = CCCCCCCCCCCC(=O)*; Decanoyl = CCCCCCCCCC(=O)*; Octanoyl = CCCCCCCC(=O)*; Hexanoyl = CCCCCC(=O)*; ξK = NCCCCC(N)C(=O)O; Butyryl = CCCC(=O)*
QUANTITY: MIC (µM)

# SUBSTANCE, QUANTITY, OBSERVED_MEASUREMENT
data = [
    ("I: Hexanoyl-GLLKRIKTLL[ξK][ξK]-NH2 / II: Hexanoyl-GLLKRIKTLL[ξK] / III: Hexanoyl-GLLKRIKTLL / IV: Hexanoyl-GLLKRIKTLL (amide I:11-IV:C, I:12-II:C, II:11-III:C)", "MIC", 32),
    ("I: Butyryl-GLLKRIKTLL[ξK][ξK]-NH2 / II: Butyryl-GLLKRIKTLL[ξK] / III: Butyryl-GLLKRIKTLL / IV: Butyryl-GLLKRIKTLL (amide I:11-IV:C, I:12-II:C, II:11-III:C)", "MIC", 32),
    ("I: Decanoyl-GLLKRIKTLL[ξK][ξK]-NH2 / II: Decanoyl-GLLKRIKTLL[ξK] / III: Decanoyl-GLLKRIKTLL / IV: Decanoyl-GLLKRIKTLL (amide I:11-IV:C, I:12-II:C, II:11-III:C)", "MIC", 256),
    ("I: Lauroyl-GLLKRIKTLL[ξK][ξK]-NH2 / II: Lauroyl-GLLKRIKTLL[ξK] / III: Lauroyl-GLLKRIKTLL / IV: Lauroyl-GLLKRIKTLL (amide I:11-IV:C, I:12-II:C, II:11-III:C)", "MIC", 256),
    ("I: Octanoyl-GLLKRIKTLL[ξK][ξK]-NH2 / II: Octanoyl-GLLKRIKTLL[ξK] / III: Octanoyl-GLLKRIKTLL / IV: Octanoyl-GLLKRIKTLL (amide I:11-IV:C, I:12-II:C, II:11-III:C)", "MIC", 256),
    ("I: H-GLLKRIKTLL[ξK][ξK]-NH2 / II: H-GLLKRIKTLL[ξK] / III: H-GLLKRIKTLL / IV: H-GLLKRIKTLL (amide I:11-IV:C, I:12-II:C, II:11-III:C)", "MIC", 16),
]

====

Tested on: Staphylococcus aureus
TEST_DETAILS: Antibacterial activity against Staphylococcus aureus ATCC 25923 assessed as reduction in bacterial growth incubated for 18 hrs by Mueller-Hinton Broth based microdilution assay
Type: functional
Square brackets hold non-standard residues; d marks the D form. Peptide text beside a SMILES is read from it. NMeR = CN[C@@H](CCCNC(=N)N)C(=O)O; NMeL = CN[C@@H](CC(C)C)C(=O)O; NMeK = CN[C@@H](CCCCN)C(=O)O

# COMPOUND, TESTED_TARGET, MIC
rows = [
    ("CC[C@H](C)[C@H](NC(=O)[C@H](CCCNC(=N)N)N(C)C(=O)[C@H](CCCCN)N(C)C(=O)[C@H](CC(C)C)NC(=O)[C@H](CC(C)C)NC(=O)CN)C(=O)N[C@@H](CCCCN)C(=O)N[C@H](C(=O)N[C@@H](CC(C)C)C(=O)N[C@@H](CC(C)C)C(N)=O)[C@@H](C)O (H-GLL[NMeK][NMeR]IKTLL-NH2)", "Staphylococcus aureus", "> 128 µM"),
    ("CC[C@H](C)[C@H](NC(=O)[C@H](CCCNC(=N)N)NC(=O)[C@H](CCCCN)NC(=O)[C@H](CC(C)C)NC(=O)[C@H](CC(C)C)NC(=O)CN)C(=O)N(C)[C@@H](CCCCN)C(=O)N[C@H](C(=O)N[C@@H](CC(C)C)C(=O)N[C@@H](CC(C)C)C(N)=O)[C@@H](C)O (H-GLLKRI[NMeK]TLL-NH2)", "Staphylococcus aureus", "> 128 µM"),
    ("CC[C@H](C)[C@H](NC(=O)[C@H](CCCNC(=N)N)NC(=O)[C@H](CCCCN)NC(=O)[C@H](CC(C)C)NC(=O)[C@H](CC(C)C)NC(=O)CN)C(=O)N[C@@H](CCCCN)C(=O)N[C@H](C(=O)N(C)[C@@H](CC(C)C)C(=O)N[C@@H](CC(C)C)C(N)=O)[C@@H](C)O (H-GLLKRIKT[NMeL]L-NH2)", "Staphylococcus aureus", "> 128 µM"),
]
